Origin of measurements: ChEMBL document CHEMBL1138923

Experiment: Clearance in rat at 1 mg/kg, iv
Assay type: ADME, organism-based
Set-up: dose 1 mg/kg, route intravenous
Settings: in vivo
// returns n unless clearance is strictly below 50 mL/min/kg, in which case y

* Cc1ccc(-c2cc(Br)ccc2OCc2ccc(F)cc2Cl)n1-c1cccc(C(=O)O)c1 | y
* Cc1ccc(-c2cc(Cl)ccc2OCC2CCCCC2)n1-c1cccc(C(=O)O)c1 | y
* Cc1c(Br)cc(-c2cc(Cl)ccc2OCc2ccccc2)n1-c1cccc(C(=O)O)c1 | n
* Cc1ccc(-c2cc(Br)ccc2OCc2ccc(F)cc2)n1-c1cccc(C(=O)O)c1 | y
* Cc1ccc(-c2cc(Cl)ccc2OCc2ccc(F)cc2)n1-c1cccc(C(=O)O)c1 | y

INPUT: # TODO verify clearance < 50 mL/min/kg strictly for this compound: Cc1ccc(-c2cc(Cl)ccc2OCc2ccc(F)cc2F)n1-c1cccc(C(=O)O)c1
OUTPUT: n

---

Assay: Volume of distribution in rat at 1 mg/kg, iv
Format: ADME, organism-based
Design: dose 1 mg/kg, route intravenous
Conditions: in vivo, read-out: Vss
Please use 1.0 whenever Vd is not below 0.8 L/kg, and 0.0 whenever it is.

- Cc1c(Br)cc(-c2cc(Cl)ccc2OCc2ccccc2)n1-c1cccc(C(=O)O)c1: 1.0
- Cc1ccc(-c2cc(Cl)ccc2OCC2CCCCC2)n1-c1cccc(C(=O)O)c1: 0.0
- Cc1ccc(-c2cc(Br)ccc2OCc2ccc(F)cc2)n1-c1cccc(C(=O)O)c1: 0.0
- Cc1ccc(-c2cc(Cl)ccc2OCc2ccc(F)cc2F)n1-c1cccc(C(=O)O)c1: 1.0

INPUT: Given Cc1ccc(-c2cc(Cl)ccc2OCc2ccc(F)cc2)n1-c1cccc(C(=O)O)c1 , state whether its Vd is at least 0.8 L/kg.
OUTPUT: 1.0

---

Target: Prostaglandin E2 receptor EP1 subtype (Homo sapiens, UniProt P34995)
Experiment: Inhibition of [3H]PGE2 binding to EP1 receptor expressed in CHO cells
measurement_kind: IC50

Examples with answers:
• Cc1ccc(-c2cc(Br)ccc2OCc2ccc(Cl)cc2)n1-c1cccc(C(=O)O)c1 = 10 nM
• Cc1ccc(-c2cc(Br)ccc2OCc2ccccc2F)n1-c1cccc(C(=O)O)c1 = 3.16 nM
• Cc1ccc(-c2cc(C(F)(F)F)ccc2OCC2CCCCC2)n1-c1cccc(C(=O)O)c1 = 31.6 nM
• Cc1ccc(-c2cc(Br)ccc2OCc2ccc(F)cc2)n1-c1cccc(C(=O)O)c1 = 6.31 nM
• Cc1ccc(-c2cc(Cl)ccc2OCC(C)C)n1-c1cccc(C(=O)O)c1 = 5.01 nM
• O=C(O)c1cccc(-n2c(-c3cc(Cl)ccc3OCc3ccc(F)cc3F)ccc2C(F)(F)F)c1 = 100 nM
• Cc1ccc(-c2cc(Br)ccc2OCC2CCCC2)n1-c1cccc(C(=O)O)c1 = 15.8 nM
• CCc1ccc(-c2cc(Cl)ccc2OCc2ccccc2)n1-c1cccc(C(=O)O)c1 = 100 nM

INPUT: State the recorded IC50 for this entry: Cc1noc(C)c1COc1ccc(Br)cc1-c1ccc(C)n1-c1cccc(C(=O)O)c1
OUTPUT: 200 nM

INPUT: Could you do the same for Cc1ccc(-c2cc(Br)ccc2OCC2CCCCC2)n1-c1cccc(C(=O)O)c1 , please?
OUTPUT: 39.8 nM

INPUT: Could you do the same for Cc1ccc(-c2cc(Br)ccc2OCc2cccc(Cl)c2)n1-c1cccc(C(=O)O)c1 , please?
OUTPUT: 10 nM

INPUT: Could you do the same for COc1cccc(COc2ccc(Br)cc2-c2ccc(C)n2-c2cccc(C(=O)O)c2)c1 , please?
OUTPUT: 50.1 nM

---

Test: Half life in rat at 1 mg/kg, iv
Assay type: ADME, organism-based
Parameters: dose 1 mg/kg, route intravenous
Conditions: in vivo
Known half-life of a selection of compounds
The figure you give is taken to be in min; do not add the unit.

Examples with answers:
- Cc1ccc(-c2cc(Cl)ccc2OCC2CCCCC2)n1-c1cccc(C(=O)O)c1: 24
- Cc1c(Br)cc(-c2cc(Cl)ccc2OCc2ccccc2)n1-c1cccc(C(=O)O)c1: 18
- Cc1ccc(-c2cc(Br)ccc2OCc2ccc(Cl)cc2)n1-c1cccc(C(=O)O)c1: 12

Next:
INPUT: State the recorded half-life for this entry: Cc1ccc(-c2cc(Br)ccc2OCc2ccc(F)cc2Cl)n1-c1cccc(C(=O)O)c1
OUTPUT: 18

---

Known IC50 of a selection of compounds
Target: UniProt P34995
Assay: Inhibition of [3H]PGE2 binding to EP1 receptor expressed in CHO cells
The figure you give is taken to be in nM; do not add the unit.

Examples with answers:
- Cc1ccc(-c2cc(Br)ccc2OCc2cccc(F)c2F)n1-c1cccc(C(=O)O)c1: 6.31
- Cc1ccc(-c2cc(Br)ccc2OCc2c(F)cccc2Cl)n1-c1cccc(C(=O)O)c1: 12.6
- Cc1ccc(-c2cc(Br)ccc2OCc2ccc(F)cc2Cl)n1-c1cccc(C(=O)O)c1: 15.8

INPUT: State the recorded IC50 for this entry: Cc1ccc(-c2cc(Cl)ccc2OCc2ccc(F)cc2)n1-c1cccc(C(=O)O)c1
OUTPUT: 6.31

INPUT: Could you do the same for Cc1ccc(-c2cc(Br)ccc2OCc2ccc(C(F)(F)F)cc2F)n1-c1cccc(C(=O)O)c1 , please?
OUTPUT: 12.6

INPUT: Could you do the same for Cc1ccc(-c2cc(Br)ccc2OCc2ccccc2Cl)n1-c1cccc(C(=O)O)c1 , please?
OUTPUT: 12.6

---

Target: Prostaglandin E2 receptor EP1 subtype (Homo sapiens)
Sequence (P34995 whole entry): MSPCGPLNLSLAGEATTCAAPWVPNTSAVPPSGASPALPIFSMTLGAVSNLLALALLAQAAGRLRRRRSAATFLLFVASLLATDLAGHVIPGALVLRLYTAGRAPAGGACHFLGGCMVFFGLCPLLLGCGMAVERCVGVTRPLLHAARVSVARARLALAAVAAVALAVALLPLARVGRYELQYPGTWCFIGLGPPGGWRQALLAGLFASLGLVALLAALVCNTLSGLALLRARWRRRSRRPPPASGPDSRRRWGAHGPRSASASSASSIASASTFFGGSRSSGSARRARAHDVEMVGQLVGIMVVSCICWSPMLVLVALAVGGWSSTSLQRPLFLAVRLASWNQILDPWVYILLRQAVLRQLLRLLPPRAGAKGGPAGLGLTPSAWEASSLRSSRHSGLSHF
Experiment: Inhibition of [3H]PGE2 binding to EP1 receptor expressed in CHO cells
pIC50: −log10 of the molar value.
Label scheme, based on pIC50: I: < 7; II: ≥ 7 and < 8; III: ≥ 8

INPUT: Class label required: Cc1ccc(-c2cc(Br)ccc2OCc2c(F)cccc2F)n1-c1cccc(C(=O)O)c1
OUTPUT: III

INPUT: Could you do the same for Cc1ccc(COc2ccc(Br)cc2-c2ccc(C)n2-c2cccc(C(=O)O)c2)cc1 , please?
OUTPUT: III

INPUT: Could you do the same for COc1ccc(COc2ccc(Br)cc2-c2ccc(C)n2-c2cccc(C(=O)O)c2)cc1 , please?
OUTPUT: II

INPUT: Could you do the same for Cc1cc(COc2ccc(Br)cc2-c2ccc(C)n2-c2cccc(C(=O)O)c2)no1 , please?
OUTPUT: II

INPUT: Could you do the same for Cc1ccc(-c2cc(-c3ccccc3)ccc2OCc2ccccc2)n1-c1cccc(C(=O)O)c1 , please?
OUTPUT: I

INPUT: Could you do the same for Cc1ccccc1COc1ccc(Br)cc1-c1ccc(C)n1-c1cccc(C(=O)O)c1 , please?
OUTPUT: II

---

Biological target: UniProt:P34995
Sequence (P34995 whole entry): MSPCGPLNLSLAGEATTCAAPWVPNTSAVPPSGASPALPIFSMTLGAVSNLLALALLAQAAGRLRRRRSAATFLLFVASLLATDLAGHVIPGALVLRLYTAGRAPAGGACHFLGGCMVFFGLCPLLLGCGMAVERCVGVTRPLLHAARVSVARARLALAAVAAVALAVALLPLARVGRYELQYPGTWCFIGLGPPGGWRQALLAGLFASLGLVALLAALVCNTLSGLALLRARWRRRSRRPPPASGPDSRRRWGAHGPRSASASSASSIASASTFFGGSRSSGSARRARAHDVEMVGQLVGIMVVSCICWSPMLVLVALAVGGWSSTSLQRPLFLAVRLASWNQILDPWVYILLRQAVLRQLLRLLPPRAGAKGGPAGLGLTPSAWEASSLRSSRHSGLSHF
Assay: Inhibition of [3H]PGE2 binding to EP1 receptor expressed in CHO cells
measurement_kind: IC50 (nM)
The figure you give is taken to be in nM; do not add the unit.

* Cc1ccc(-c2cc(Br)ccc2OCc2cc(F)ccc2F)n1-c1cccc(C(=O)O)c1 | 7.94

INPUT: State the recorded IC50 for this entry: Cc1ccc(-c2cc(Br)ccc2OCc2ccc(Cl)c(Cl)c2)n1-c1cccc(C(=O)O)c1
OUTPUT: 100

INPUT: Could you do the same for Cc1ccc(-c2cc(Cl)ccc2OCC2CCCCC2)n1-c1cccc(C(=O)O)c1 , please?
OUTPUT: 126

INPUT: Could you do the same for CCc1ccc(-c2cc(Br)ccc2OCc2ccccc2)n1-c1cccc(C(=O)O)c1 , please?
OUTPUT: 79.4

INPUT: Could you do the same for Cc1ccc(-c2cc(Br)ccc2OCc2cccc(OC(F)F)c2)n1-c1cccc(C(=O)O)c1 , please?
OUTPUT: 79.4

INPUT: Could you do the same for Cc1ccc(-c2cc(Br)ccc2OCc2ccc(OC(F)(F)F)cc2)n1-c1cccc(C(=O)O)c1 , please?
OUTPUT: 15.8

INPUT: Could you do the same for Cc1ccc(-c2cc(Br)ccc2OCc2c(F)cccc2C(F)(F)F)n1-c1cccc(C(=O)O)c1 , please?
OUTPUT: 100
